Molecular target: Protein-serine O-palmitoleoyltransferase porcupine (Mus musculus, UniProt Q9JJJ7)
Sequence (Q9JJJ7 whole entry): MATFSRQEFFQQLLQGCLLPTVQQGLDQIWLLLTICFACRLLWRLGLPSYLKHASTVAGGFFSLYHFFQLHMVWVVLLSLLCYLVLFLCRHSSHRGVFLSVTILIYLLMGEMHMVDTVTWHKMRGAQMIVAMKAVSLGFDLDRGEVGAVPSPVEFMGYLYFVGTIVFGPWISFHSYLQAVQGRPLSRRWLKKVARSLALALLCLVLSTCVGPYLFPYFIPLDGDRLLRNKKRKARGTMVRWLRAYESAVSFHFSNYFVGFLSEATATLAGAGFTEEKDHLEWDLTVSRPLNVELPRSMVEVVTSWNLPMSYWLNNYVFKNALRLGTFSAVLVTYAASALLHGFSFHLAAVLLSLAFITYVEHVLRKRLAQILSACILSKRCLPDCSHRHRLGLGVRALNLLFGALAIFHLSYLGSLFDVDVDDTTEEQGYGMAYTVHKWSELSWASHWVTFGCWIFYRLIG
Experiment: Inhibition of porcupine-mediated Wnt signalling in mouse L cells after 24 hrs by SuperTopflash reporter assay
Readout: EC50 (nM)

These recorded examples may help you get a feel for the data.
Compound structure | Experimental result
COc1ccc(-n2c(SCC(=O)Nc3nc4ccc(C(F)(F)F)cc4s3)nc3c(c2=O)SCC3)cc1 | 100
O=C(CSc1nc2c(c(=O)n1-c1ccccc1)SCC2)Nc1ccc(-c2ccoc2)cn1 | 1.5
O=C(CNC(=O)c1nn(-c2ccc(F)cc2)c(=O)c2ccccc12)Nc1nc2ccc(C(F)(F)F)cc2s1 | 90
Cc1ccc2nc(NC(=O)CSc3nc4c(c(=O)n3-c3ccc(F)cc3)SCC4)sc2c1 | 40
CCOC(=O)c1ccc(NC(=O)CSc2nc3c(c(=O)n2-c2ccccc2)SCC3)cc1 | 300
O=C(CSc1nc2c(c(=O)n1-c1ccccc1)SCC2)Nc1ccc(N2CCCCC2)cc1 | 30

[A] COc1ccc2nc(NC(=O)CSc3nc4c(c(=O)n3-c3ccccc3)SCC4)ccc2c1
[B] O=C(CSc1nc2c(c(=O)n1-c1ccc(F)cc1)SCC2)Nc1nc2ccc(Cl)cc2s1
// compare: A vs B , metric EC50, want the smaller Field: selected label. Fill in the label of the entry you choose. B
(B: 175 nM, A: 580 nM)

[a] COc1ccc2nc(NC(=O)CNC(=O)c3nn(-c4ccccc4)c(=O)c4ccccc34)sc2c1
[b] O=C(CSc1nc2c(c(=O)n1-c1ccccc1)SCC2)Nc1ccc(-c2ccccc2)nc1
Hi! Which is lower in terms of EC50, the first one a or the second one b ? Indicate your choice by writing its label. b
(b: 0.3 nM, a: 210 nM)
